Origin of the recorded values: PubChem BioAssay (NCI)

- System: SW-620 colon
- runDescription: NCI-60 one-dose screen, 48 h (100 = growth as untreated, 0 = no growth, -100 = all killed)
- studyConditions: 10 µM unless noted
About 83,000 compounds went through this panel and 20% of them were active in at least one assay; those are over-represented in the sample as a whole.
Where growth equals or exceeds 80%, the correct label is Fulfilled; where it does not, the label is Not fulfilled.

Is it the case that CNCc1cccc2c1OCCCCCCC(C)(O)CC(C)(C)S(=O)(=O)c1ccc(cc1)-c1cnc(N)c(n1)C(=O)N2 (stereo not given) has growth reaching or exceeding 80%?
Not fulfilled

Is it the case that COc1cc2oc(-c3cccc(C(=O)N[C@@H](CC(C)C)C(=O)OC(C)(C)C)c3)cc(=O)c2c(OC)c1OC has growth reaching or exceeding 80%?
Fulfilled

Is it the case that Cc1ccc(CSc2nc(-c3ccc(Cl)cc3)c(C#N)c(N3CCOCC3)n2)cc1 has growth reaching or exceeding 80%?
Fulfilled

Is it the case that CCn1c(SCC(=O)Nc2cccc(C(=O)/C=C/c3ccc(C)cc3)c2)nc2ccccc2c1=O has growth reaching or exceeding 80%?
Not fulfilled

Is it the case that COc1ccc2c(c1)Oc1nc(N)c(C#N)c(N)c1C2Sc1ccc(C)cc1 (stereo not given) has growth reaching or exceeding 80%?
Not fulfilled

Is it the case that O=C(Nc1nc2ccc([N+](=O)[O-])cc2s1)Nc1ccccc1Cl has growth reaching or exceeding 80%?
Not fulfilled

Is it the case that O=C1C(c2ccccc2)=C(N2CCc3ccccc32)OC1(Cl)Cl has growth reaching or exceeding 80%?
Not fulfilled

Is it the case that O=S(=O)(Nc1ccc(I)cc1Cl)c1ccc(-c2cnc(C3CC3)o2)cc1 has growth reaching or exceeding 80%?
Not fulfilled

Is it the case that c1cn2c(ccc3nc(-c4cn[nH]c4)c4c(c32)CCCC4)n1 has growth reaching or exceeding 80%?
Not fulfilled

Is it the case that CCCCCc1ccc(S(=O)(=O)Nc2cc(-c3csc(NC(=O)CN4CCN(CCO)CC4)n3)ccc2OC)cc1 has growth reaching or exceeding 80%?
Not fulfilled

Is it the case that Nn1c(N/N=C/c2nc3ccccc3s2)n[nH]c1=S has growth reaching or exceeding 80%?
Fulfilled

Is it the case that NC(N)=Nc1ccc(Oc2cccc(NC(N)=Nc3ccc(Br)c(C(F)(F)F)c3)c2)cc1 has growth reaching or exceeding 80%?
Not fulfilled

Is it the case that O=S(=O)(NCCCNc1nccc(-c2[nH]c(-c3ccccc3)nc2-c2ccc(Cl)c(O)c2)n1)c1cccc(F)c1 has growth reaching or exceeding 80%?
Fulfilled

Is it the case that CC(=O)c1cc(C(=O)N2c3ccccc3Sc3ccccc32)n2ccc3ccccc3c12 has growth reaching or exceeding 80%?
Not fulfilled

Is it the case that O=C(NCCn1ccnc1)c1ccc(-c2nc3ccc4[nH]ncc4c3c3c2CCCC3)cc1 has growth reaching or exceeding 80%?
Not fulfilled

Is it the case that COC(=O)c1[nH]nc2c1C1(C(=O)N(C)c3ccccc31)C(C#N)=C(N)O2 (stereo not given) has growth reaching or exceeding 80%?
Fulfilled

Is it the case that N#Cc1c(Nc2ccccc2)nn2c(-c3ccc([N+](=O)[O-])cc3)ccnc12 has growth reaching or exceeding 80%?
Fulfilled

Is it the case that NS(=O)(=O)c1ccc(Nc2nc(SCC(=O)c3ccc(Cl)cc3)nc3c2CCCC3)cc1 has growth reaching or exceeding 80%?
Not fulfilled

Is it the case that O=S(=O)(NCCCNc1nccc(-n2cnc3ccccc32)n1)c1ccc(C(F)(F)F)cc1 has growth reaching or exceeding 80%?
Fulfilled
